Some binders, each annotated with its measured IC50 (read off the curve).
TESTED_SYSTEM: recombinant human KLK5 (human) (UniProt Q9Y337)
Sequence (Q9Y337 67-293): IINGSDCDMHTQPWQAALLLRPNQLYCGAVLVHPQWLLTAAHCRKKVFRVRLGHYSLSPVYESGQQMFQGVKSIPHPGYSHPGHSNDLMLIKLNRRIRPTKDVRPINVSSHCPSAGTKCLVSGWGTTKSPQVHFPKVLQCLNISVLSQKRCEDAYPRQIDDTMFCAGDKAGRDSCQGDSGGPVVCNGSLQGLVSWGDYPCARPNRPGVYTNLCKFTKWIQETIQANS
ASSAY_NOTES: pro-KLK7 coupled assay, 5 nM KLK5, 125 nM pro-KLK7, suc-LLVY-AMC
Reply with just the number (in nM).

BINDER	PROPERTY_MEASURED	READING
9F2 (antibody, V domains shown) VH: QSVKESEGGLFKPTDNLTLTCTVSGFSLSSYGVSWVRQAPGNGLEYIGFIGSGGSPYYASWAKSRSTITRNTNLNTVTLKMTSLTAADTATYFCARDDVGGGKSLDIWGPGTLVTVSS VL: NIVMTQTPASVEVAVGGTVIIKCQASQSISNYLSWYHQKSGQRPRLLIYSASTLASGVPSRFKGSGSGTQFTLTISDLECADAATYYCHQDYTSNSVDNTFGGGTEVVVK	IC50 (read off the curve)	0.9

From here, focus on the item given below.
[Q] Given the binder 10H3 (antibody, V domains shown) VH: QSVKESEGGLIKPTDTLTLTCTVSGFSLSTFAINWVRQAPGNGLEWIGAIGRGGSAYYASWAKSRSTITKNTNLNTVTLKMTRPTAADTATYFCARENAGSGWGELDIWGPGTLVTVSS VL: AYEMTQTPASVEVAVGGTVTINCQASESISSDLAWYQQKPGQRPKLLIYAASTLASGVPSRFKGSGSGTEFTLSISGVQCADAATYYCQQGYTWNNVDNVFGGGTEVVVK , what is its reported IC50 (read off the curve)?
[A] 1
